Source of measurements: paper PMC10010643

Assay: Plasma PK, Part B multiple oral BID doses in healthy participants
Format: in vivo, human
Conditions: human, plasma, oral, 100 mg, 100 mg BID, fasted, Day 10; read-out: Tmax, median (min–max)
Description: Following review of safety, tolerability, and PK data from cohorts A1–A6, participants received twice-daily doses (BID) under fasted conditions on days 1–9 and a final single dose in the morning of day 10. […] Dose proportionality was analyzed for exposure parameters after fasted doses. The power model was used on AUC0–∞, AUC0–tlast, and Cmax on day 1 in Part A. Data were analyzed over two dose ranges: 50–400 mg (50 mg capsules) and 5–50 mg (5 mg capsules). […]
REPORTED_ENDPOINT: Tmax (h)
Answers are plain numbers, in h.

## Task Using the record for `OC[C@H]1O[C@H](Sc2cncc(Br)c2)[C@H](O)[C@@H](n2cc(-c3cc(F)c(F)c(F)c3)nn2)[C@H]1O` , report its Tmax.
## Result 3
